Reported pEC50 values are given for each entry in this list.
Molecular target: Sphingosine 1-phosphate receptor 1 (Homo sapiens, UniProt P21453)
Sequence (P21453 whole entry): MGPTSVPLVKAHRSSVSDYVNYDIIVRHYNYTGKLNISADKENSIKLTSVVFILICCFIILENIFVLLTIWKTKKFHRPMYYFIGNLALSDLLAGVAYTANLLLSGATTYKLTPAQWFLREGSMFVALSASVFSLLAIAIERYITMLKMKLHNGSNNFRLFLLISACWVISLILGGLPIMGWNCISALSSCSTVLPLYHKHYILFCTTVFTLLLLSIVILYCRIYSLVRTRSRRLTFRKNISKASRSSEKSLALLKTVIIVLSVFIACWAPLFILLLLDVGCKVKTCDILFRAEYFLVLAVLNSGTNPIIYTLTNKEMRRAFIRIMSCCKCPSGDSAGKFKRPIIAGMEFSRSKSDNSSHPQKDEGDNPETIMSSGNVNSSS
Test: Agonist activity at S1P1 receptor (unknown origin) expressed in CHO cells incubated for 2 hrs by HTRF-IP1 assay
The scale used: pEC50 is minus the common logarithm of the concentration in molar units.

Please look up its pEC50: CCCc1nc(-c2ccc(-c3ccc(CCC(N)(CO)COP(=O)(O)O)cc3)cc2)co1 (stereo unspecified)
7.88

For the molecule CCc1nc(-c2ccc(-c3ccc(CCC(N)(CO)COP(=O)(O)O)cc3)cc2)co1 (stereo unspecified) , what pEC50 is on record?
8.15

Given the molecule CC(O)Cc1nc(-c2ccc(-c3ccc(CCC(N)(CO)CO)cc3)cc2)co1.Cl (stereo unspecified) , what is its reported pEC50?
5.82

Returns the measured pEC50 for the input molecule. Input: `CCCc1nc(-c2ccc(-c3ccc(CCC(N)(CO)CO)cc3)cc2)co1.Cl`
5.79
